- TARGET: Recombinant human his-tagged IGF 1R extracellular domain protein (human) (UniProt P08069)
- ASSAY_PROTOCOL: SPR, captured IgG, IGF-1R ECD-his analyte, dissociation pH 7.4
MEASURED_ATTRIBUTE: koff (s⁻¹)
Express your answer in s⁻¹, writing the number without its unit.

BINDER	koff, s⁻¹
VRDN-02501 (antibody, V domains shown) VH: EVQLVQSGGGLVKPGGSLRLSCAASHFTFSSFAMHWVRQAPGKGLEWISVIDTRGATYYADSVKGRFTISRDNAKNSLYLQMNSLRAEDTAVYYCARLGNFYYGMDVWGQGTTVTVSS VL: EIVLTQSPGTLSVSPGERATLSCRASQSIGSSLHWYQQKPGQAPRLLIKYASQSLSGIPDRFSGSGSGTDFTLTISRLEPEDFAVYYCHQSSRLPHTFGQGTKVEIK	0.00015
VRDN-02505 (antibody, V domains shown) VH: EVQLVQSGGGLVKPGGSLRLSCAASGFTFHSFAMHWVRQAPGKGLEWISVIDTRGATYYADSVKGRFTISRDNAKNSLYLQMNSLRAEDTAVYYCARLGNFYYGMDVWGQGTTVTVSS VL: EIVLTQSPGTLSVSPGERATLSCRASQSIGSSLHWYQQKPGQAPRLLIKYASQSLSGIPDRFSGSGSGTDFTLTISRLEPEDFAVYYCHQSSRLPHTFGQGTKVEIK	0.000375
VRDN-02531 (antibody, V domains shown) VH: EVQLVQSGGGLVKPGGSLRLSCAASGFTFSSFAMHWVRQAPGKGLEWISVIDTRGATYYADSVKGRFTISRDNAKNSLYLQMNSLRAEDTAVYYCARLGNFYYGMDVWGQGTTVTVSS VL: EIVLTQSPGTLSVSPGERATLSCRASHSIGSSLHWYQQKPGQAPRLLIKYASQSLSGIPDRFSGSGSGTDFTLTISRLEPEDFAVYYCHQSSRLPHTFGQGTKVEIK	2.1e-05
VRDN-02546 (antibody, V domains shown) VH: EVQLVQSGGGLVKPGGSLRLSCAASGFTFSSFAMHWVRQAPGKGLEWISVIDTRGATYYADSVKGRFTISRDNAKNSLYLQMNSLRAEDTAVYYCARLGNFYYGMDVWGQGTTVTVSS VL: EIVLTQSPGTLSVSPGERATLSCRASQSIGSSLHWYQQKPGQAPRLLIKYASQSLSGIPDRFSGSGSGTDFTLTISRLEPEDFAVYYCHHSSRLPHTFGQGTKVEIK	5.94e-05
VRDN-02528 (antibody, V domains shown) VH: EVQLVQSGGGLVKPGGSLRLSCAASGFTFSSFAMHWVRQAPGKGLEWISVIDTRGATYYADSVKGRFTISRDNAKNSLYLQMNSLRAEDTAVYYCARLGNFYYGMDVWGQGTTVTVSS VL: EIVLTQSPGTLSVSPGERATLSCHASQSIGSSLHWYQQKPGQAPRLLIKYASQSLSGIPDRFSGSGSGTDFTLTISRLEPEDFAVYYCHQSSRLPHTFGQGTKVEIK	3.55e-05

*Q* May I ask what koff has been recorded for VRDN-02522 (antibody, V domains shown) VH: EVQLVQSGGGLVKPGGSLRLSCAASGFTFSSFAMHWVRQAPGKGLEWISVIDTRGATYYADSVKGRFTISRDNAKNSLYLQMNSLRAEDTAVYYCARLGNFHYGMDVWGQGTTVTVSS VL: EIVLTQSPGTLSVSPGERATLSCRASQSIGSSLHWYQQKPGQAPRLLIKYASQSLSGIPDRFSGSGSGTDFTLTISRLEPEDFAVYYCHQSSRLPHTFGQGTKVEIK ?
*A* 1.73e-05

*Q* Which koff is reported for this binder? VRDN-02516 (antibody, V domains shown) VH: EVQLVQSGGGLVKPGGSLRLSCAASGFTFSSFAMHWVRQAPGKGLEWISVIDTRGATYYADSVKGRFTISRDNAKNSLYLQMNSLRAEDTAVYYCHRLGNFYYGMDVWGQGTTVTVSS VL: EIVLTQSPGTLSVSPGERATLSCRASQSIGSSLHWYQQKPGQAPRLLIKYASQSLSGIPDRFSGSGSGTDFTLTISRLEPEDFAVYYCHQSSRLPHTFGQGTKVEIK
*A* 0.000418

*Q* Give its koff value. Item: VRDN-02517 (antibody, V domains shown) VH: EVQLVQSGGGLVKPGGSLRLSCAASGFTFSSFAMHWVRQAPGKGLEWISVIDTRGATYYADSVKGRFTISRDNAKNSLYLQMNSLRAEDTAVYYCAHLGNFYYGMDVWGQGTTVTVSS VL: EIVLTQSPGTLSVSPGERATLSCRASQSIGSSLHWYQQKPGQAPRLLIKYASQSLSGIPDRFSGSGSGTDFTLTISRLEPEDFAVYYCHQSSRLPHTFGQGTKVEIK
*A* 0.00264

*Q* Quick one: koff of VRDN-02548 (antibody, V domains shown) VH: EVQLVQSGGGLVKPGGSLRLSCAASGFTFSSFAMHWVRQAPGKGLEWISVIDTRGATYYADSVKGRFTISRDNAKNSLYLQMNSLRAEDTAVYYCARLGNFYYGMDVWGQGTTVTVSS VL: EIVLTQSPGTLSVSPGERATLSCRASQSIGSSLHWYQQKPGQAPRLLIKYASQSLSGIPDRFSGSGSGTDFTLTISRLEPEDFAVYYCHQSHRLPHTFGQGTKVEIK ?
*A* 8.72e-05

*Q* I have this binder here, VRDN-02527 (antibody, V domains shown) VH: EVQLVQSGGGLVKPGGSLRLSCAASGFTFSSFAMHWVRQAPGKGLEWISVIDTRGATYYADSVKGRFTISRDNAKNSLYLQMNSLRAEDTAVYYCARLGNFYYGMDHWGQGTTVTVSS VL: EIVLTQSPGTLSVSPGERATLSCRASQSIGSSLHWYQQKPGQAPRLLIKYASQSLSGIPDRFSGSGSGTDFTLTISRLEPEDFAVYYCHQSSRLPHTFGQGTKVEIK , and I need its recorded koff.
*A* 2.16e-05
